A collection of molecules and their measured Ki
assay-target: 5-hydroxytryptamine receptor 6 (Homo sapiens)
Sequence (P50406 whole entry): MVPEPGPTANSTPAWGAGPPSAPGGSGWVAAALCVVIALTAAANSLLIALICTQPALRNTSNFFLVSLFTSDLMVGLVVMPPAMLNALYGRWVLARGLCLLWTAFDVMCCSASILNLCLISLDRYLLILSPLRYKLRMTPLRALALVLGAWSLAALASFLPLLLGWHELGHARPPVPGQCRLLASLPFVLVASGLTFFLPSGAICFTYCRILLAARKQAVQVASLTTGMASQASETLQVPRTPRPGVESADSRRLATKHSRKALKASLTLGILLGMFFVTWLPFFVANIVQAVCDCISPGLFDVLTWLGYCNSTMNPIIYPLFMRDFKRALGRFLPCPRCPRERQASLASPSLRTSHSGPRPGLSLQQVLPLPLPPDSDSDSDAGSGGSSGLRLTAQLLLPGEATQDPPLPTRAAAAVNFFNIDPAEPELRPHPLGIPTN
Reply with just the number (in nM).

1. NC1=NC2(CCCCC2)NC(Nc2cccc(Br)c2)=N1 3030

Pending molecule:
5-hydroxytryptamine receptor 6 (Homo sapiens) Ki of "CC1(C)N=C(N)N=C(Nc2cccc(Br)c2)N1" is 696

---

# 5-hydroxytryptamine receptor 2B (Homo sapiens, UniProt P41595): Ki values follow
# Sequence (P41595 whole entry): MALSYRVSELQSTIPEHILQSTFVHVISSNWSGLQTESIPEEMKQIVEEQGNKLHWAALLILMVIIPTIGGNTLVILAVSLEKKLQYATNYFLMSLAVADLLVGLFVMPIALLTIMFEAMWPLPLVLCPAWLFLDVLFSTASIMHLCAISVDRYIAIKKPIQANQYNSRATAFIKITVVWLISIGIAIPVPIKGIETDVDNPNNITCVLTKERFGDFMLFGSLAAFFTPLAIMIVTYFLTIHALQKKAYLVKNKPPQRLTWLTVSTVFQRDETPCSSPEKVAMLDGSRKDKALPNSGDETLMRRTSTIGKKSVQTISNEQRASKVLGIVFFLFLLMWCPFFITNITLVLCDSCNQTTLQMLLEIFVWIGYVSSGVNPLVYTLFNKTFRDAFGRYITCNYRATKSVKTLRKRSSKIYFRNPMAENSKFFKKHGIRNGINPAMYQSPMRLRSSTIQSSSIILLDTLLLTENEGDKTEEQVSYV
Reply with just the number (in nM).

Below, each entry is followed by its recorded Ki result.
1) CCOC(=O)c1cccc(NC2=NC(N)=NC3(CCCCC3)N2)c1 7.2
2) NC1=NC2(CCCCC2)NC(Nc2cccc(Br)c2)=N1 6.2
3) CCOC(=O)c1cccc(NC2=NC(N(C)C)=NC3(CCCCC3)N2)c1 38.5

Pending compound:
5-hydroxytryptamine receptor 2B (Homo sapiens, UniProt P41595) Ki of "CCNC(=O)c1cccc(NC2=NC(N)=NC3(CCCCC3)N2)c1" is 27.5

---

A collection of compounds and their measured pKi
assay-target: UniProtKB P46098
Sequence (P46098 whole entry): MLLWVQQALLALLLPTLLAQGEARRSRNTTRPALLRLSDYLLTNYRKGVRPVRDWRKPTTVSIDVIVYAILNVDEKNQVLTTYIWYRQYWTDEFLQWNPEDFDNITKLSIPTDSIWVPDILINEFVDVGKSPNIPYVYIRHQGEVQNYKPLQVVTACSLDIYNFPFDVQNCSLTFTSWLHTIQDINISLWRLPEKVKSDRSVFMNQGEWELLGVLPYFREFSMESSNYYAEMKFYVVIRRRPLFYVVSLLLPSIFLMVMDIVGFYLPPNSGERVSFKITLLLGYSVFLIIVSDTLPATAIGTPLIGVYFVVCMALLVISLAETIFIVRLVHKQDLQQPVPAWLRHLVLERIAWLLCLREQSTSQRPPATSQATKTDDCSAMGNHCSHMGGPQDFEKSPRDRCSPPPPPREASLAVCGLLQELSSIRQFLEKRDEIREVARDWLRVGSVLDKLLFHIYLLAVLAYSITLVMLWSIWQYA
pKi: −log10 of the molar value.

1) NC1=NC2(CCCCC2)NC(Nc2cccc(Br)c2)=N1 < 5.00

Pending compound:
The compound "CCOC(=O)c1cccc(NC2=NC(N(C)C)=NC3(CCCCC3)N2)c1" showed pKi equal to < 5.00

---

assay-target: UniProtKB Q12809
Sequence (Q12809 whole entry): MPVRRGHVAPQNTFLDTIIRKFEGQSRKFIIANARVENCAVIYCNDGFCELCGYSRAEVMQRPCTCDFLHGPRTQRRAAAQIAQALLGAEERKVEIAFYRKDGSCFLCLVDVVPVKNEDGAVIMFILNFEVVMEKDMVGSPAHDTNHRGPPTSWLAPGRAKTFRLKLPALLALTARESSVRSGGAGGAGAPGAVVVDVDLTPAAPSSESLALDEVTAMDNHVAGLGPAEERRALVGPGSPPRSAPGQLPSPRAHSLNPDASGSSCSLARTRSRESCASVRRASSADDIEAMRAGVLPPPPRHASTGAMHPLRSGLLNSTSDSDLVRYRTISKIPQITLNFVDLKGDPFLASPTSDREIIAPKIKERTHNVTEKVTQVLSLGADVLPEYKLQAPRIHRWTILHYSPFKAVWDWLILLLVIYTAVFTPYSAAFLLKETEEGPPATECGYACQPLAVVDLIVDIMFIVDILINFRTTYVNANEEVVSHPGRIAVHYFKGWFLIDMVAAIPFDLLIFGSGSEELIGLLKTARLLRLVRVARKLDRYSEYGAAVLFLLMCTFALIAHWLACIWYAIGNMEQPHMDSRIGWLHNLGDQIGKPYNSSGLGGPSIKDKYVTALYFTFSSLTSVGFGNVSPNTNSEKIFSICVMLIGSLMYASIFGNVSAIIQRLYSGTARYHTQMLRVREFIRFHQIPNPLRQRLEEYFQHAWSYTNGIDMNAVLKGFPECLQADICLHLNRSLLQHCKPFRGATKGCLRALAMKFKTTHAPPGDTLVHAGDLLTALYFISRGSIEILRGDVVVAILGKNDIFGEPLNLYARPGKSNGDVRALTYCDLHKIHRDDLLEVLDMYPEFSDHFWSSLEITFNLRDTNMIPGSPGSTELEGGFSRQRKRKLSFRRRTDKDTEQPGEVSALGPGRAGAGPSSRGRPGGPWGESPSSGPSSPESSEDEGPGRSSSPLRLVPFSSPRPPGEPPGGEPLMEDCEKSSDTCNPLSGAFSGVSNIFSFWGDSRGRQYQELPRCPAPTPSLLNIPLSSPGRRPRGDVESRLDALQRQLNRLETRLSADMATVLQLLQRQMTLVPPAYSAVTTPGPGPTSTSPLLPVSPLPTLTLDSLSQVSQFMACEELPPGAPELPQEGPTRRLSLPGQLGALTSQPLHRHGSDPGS
protocol-text: Inhibition of human ERG channel by patch clamp assay
pIC50: −log10 of the molar value.
measurement-kind: pIC50

The molecule "NC1=NC2(CCCCC2)NC(Nc2cccc(Br)c2)=N1" showed pIC50 equal to < 6.00
